System: HIV-1 NL 4-3
Test: HIV-1 infection of C8166 cells (syncytia formation, p24 ELISA) with HIV-1 NL 4-3
Format: cell-based
Conditions: C8166 cells, HIV-1 subtype B NL 4-3; Table 9; two lines = tested twice, 8 days apart
Square brackets hold non-standard residues; d marks the D form. Peptide text beside a SMILES is read from it. Ava = NCCCCC(=O)O
measured.quantity: IC50 (nM)
Supply the numeric figure in nM, leaving out any unit text.

## Task Given the entry NCC(=O)N1CCC[C@H]1C(=O)NCC(=O)NCCCCC(=O)O [GPG valeric acid, GPG-NHCH2CH2CH2CH2COOH] (H-GPG[Ava]-OH; N-terminus assumed) , report its measured IC50.
## Result 10

## Task For NCC(=O)N1CCC[C@H]1C(=O)NCC(=O)O [GPG, reference compound] (H-Gly-Pro-Gly-OH) then?
## Result 10

## Task For C[C@H](NC(=O)[C@H](CCCNC(=N)N)NC(=O)CNC(=O)[C@@H]1CCCN1C(=O)CN)C(=O)N[C@@H](Cc1ccccc1)C(=O)NCCCCC(=O)O [SPC3 monomer valeric acid, GPGRAF-NHCH2CH2CH2CH2COOH] (H-GPGRAF[Ava]-OH; N-terminus assumed) then?
## Result 50

## Task For C[C@H](NC(=O)[C@H](CCCNC(=N)N)NC(=O)CNC(=O)[C@@H]1CCCN1C(=O)CN)C(=O)NCCCCC(=O)O [GPGRA valeric acid, GPGRA-NHCH2CH2CH2CH2COOH] (H-GPGRA[Ava]-OH; N-terminus assumed) then?
## Result 10
